# targetUnderTest: ScNbp2
# methodDescription: SPOT peptide array binding signal intensity (averaged, normalized) (arbitrary units (background-subtracted, floor 0; scale differs between SH3 domains)); higher = stronger binding of the SH3 domain to the peptide
metricName: SPOT peptide array binding signal intensity
Simply state the number, no unit and no words.

- binder: "KMSRSPPRPPSLKII"
  reportedMeasurement: 2300

// fetch SPOT peptide array binding signal intensity given entry SKAKRPKFLLDLQIK 62

// fetch SPOT peptide array binding signal intensity given entry HKVLRPFLLRRLKKD 102

// fetch SPOT peptide array binding signal intensity given entry KKIRLIFTYPSTVGR 744

The origin of these recorded values is the supplement of paper PMC4466140.
